protocol summary: Compound was evaluated for inhibition of tyrosinase enzyme.
pIC50: −log10 of the molar value.
Below, each entry is listed alongside its reported pIC50.
endpoint: pIC50

• CC(C)[C@H](NC(=O)OCc1cc(=O)c(O)co1)C(=O)O = 4.78
• C[C@H](NC(=O)OCc1cc(=O)c(O)co1)C(=O)O = 4.63
• CC[C@H](C)[C@H](NC(=O)OCc1cc(=O)c(O)co1)C(=O)O = 4.81
• CC(C)C[C@H](NC(=O)OCc1cc(=O)c(O)co1)C(=O)OCc1cc(=O)c(O)co1 = 5.70
• CC(C)[C@H](NC(=O)OCc1cc(=O)c(O)co1)C(=O)OCc1cc(=O)c(O)co1 = 5.62
• O=C(N[C@@H](Cc1ccccc1)C(=O)O)OCc1cc(=O)c(O)co1 = 5.10
• CC[C@H](C)[C@H](NC(=O)OCc1cc(=O)c(O)co1)C(=O)OCc1cc(=O)c(O)co1 = 6.15
• CC(C)C[C@H](NC(=O)OCc1cc(=O)c(O)co1)C(=O)O = 4.84
• C[C@H](NC(=O)OCc1cc(=O)c(O)co1)C(=O)OCc1cc(=O)c(O)co1 = 5.52
• O=C(N[C@@H](Cc1ccccc1)C(=O)OCc1cc(=O)c(O)co1)OCc1cc(=O)c(O)co1 = 7.22
